# Lookup of reported αvβ5 signal keyed by entry
experimental.target: T1, integrin αVβ5 (UniProt P06756 31-992; P18084 24-719)
T1 construct: Coated on the ELISA plate
T1 sequence (P06756 31-992, chain 1 of 2): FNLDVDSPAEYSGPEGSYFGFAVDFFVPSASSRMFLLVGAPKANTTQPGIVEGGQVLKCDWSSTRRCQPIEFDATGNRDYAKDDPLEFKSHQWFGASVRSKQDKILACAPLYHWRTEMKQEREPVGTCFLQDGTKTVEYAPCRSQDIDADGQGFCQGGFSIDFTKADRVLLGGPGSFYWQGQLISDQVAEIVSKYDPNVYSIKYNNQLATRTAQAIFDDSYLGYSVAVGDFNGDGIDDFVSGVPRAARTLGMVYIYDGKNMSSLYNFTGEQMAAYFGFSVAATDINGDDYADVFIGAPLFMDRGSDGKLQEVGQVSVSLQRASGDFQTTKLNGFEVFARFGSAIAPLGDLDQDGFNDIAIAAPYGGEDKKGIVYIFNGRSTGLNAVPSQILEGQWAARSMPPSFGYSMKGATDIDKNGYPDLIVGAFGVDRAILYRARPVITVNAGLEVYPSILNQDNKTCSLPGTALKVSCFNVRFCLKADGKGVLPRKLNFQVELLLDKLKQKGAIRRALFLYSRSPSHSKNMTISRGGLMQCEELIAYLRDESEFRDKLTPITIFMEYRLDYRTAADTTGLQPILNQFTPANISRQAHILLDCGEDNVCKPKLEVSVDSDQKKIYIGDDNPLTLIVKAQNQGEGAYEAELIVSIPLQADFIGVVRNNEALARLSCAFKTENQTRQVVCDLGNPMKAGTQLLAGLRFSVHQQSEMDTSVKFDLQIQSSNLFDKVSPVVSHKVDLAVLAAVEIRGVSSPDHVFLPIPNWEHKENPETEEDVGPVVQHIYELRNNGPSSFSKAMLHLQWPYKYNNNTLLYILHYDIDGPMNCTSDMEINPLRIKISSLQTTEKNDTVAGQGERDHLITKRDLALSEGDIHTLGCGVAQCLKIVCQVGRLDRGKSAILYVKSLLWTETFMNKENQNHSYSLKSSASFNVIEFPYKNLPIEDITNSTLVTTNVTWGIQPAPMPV
T1 sequence (P18084 24-719, chain 2 of 2): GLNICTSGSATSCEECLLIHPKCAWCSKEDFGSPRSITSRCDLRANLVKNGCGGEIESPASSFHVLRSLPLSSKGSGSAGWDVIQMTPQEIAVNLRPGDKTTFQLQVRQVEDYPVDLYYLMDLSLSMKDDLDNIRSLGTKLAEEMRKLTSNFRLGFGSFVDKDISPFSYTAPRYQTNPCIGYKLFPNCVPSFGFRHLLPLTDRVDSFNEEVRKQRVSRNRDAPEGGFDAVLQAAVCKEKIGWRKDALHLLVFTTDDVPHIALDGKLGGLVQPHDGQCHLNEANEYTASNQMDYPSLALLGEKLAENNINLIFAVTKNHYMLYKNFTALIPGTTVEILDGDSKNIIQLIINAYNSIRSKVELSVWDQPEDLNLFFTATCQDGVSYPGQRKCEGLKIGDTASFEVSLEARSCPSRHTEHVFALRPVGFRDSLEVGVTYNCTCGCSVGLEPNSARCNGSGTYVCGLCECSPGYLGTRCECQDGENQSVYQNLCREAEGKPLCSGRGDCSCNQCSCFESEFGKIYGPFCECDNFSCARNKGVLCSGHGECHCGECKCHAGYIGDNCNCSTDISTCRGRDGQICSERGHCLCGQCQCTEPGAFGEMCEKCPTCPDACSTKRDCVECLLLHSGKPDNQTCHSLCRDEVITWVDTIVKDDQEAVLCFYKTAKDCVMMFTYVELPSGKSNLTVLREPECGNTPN
experimental.details: phage ELISA, coated integrin, anti-M13-HRP
value.type: αvβ5 signal (OD)

binder="M13 phage pKK102 displaying MICA α3 domain with loop 1 insert 5.1sp (designed binder, also called 1-5.1sp; not shown: C-terminal portion of M13 gene III protein, fused at codon position 198) TVPPMVNVTSGGSGGGSVTRGDTFTQSSGGSGGGVTCRASGFYPWNITLSWRQDGVSLSHDTQQWGDVLPDGNGTYQTWVATRICQGEEQRFTCYMEHSGNHSTHPVPSGK" unit_of_measurement=OD quantitative_readout=1.5
binder="M13 phage pKK106 displaying wild type MICA α3 domain fused to pIII (other, also called WT; not shown: C-terminal portion of M13 gene III protein, fused at codon position 198) TVPPMVNVTRSEASEGNITVTCRASGFYPWNITLSWRQDGVSLSHDTQQWGDVLPDGNGTYQTWVATRICQGEEQRFTCYMEHSGNHSTHPVPSGK" unit_of_measurement=OD quantitative_readout=0
binder="M13 phage pKK138 displaying MICA α3 domain with loop 1 insert 5.1sp and loop 3 insert 5.3sp (designed binder, also called 1-5.1sp/3-5.3sp; not shown: C-terminal portion of M13 gene III protein, fused at codon position 198) TVPPMVNVTSGGSGGGSVTRGDTFTQSSGGSGGGVTCRASGFYPWNITLSWRQDGVSLSHDTQQWGDVLPDGNGTYQTWVATRISGGSGGGSHLARGDDLTYSGGSGGGCYMEHSGNHSTHPVPSGK" unit_of_measurement=OD quantitative_readout=2.75
binder="M13 phage pKK139 displaying MICA α3 domain with loop 1 insert 5.1sp and loop 3 insert 5.1spNH (designed binder, also called 1-5.1sp/3-5.1spNH; not shown: C-terminal portion of M13 gene III protein, fused at codon position 198) TVPPMVNVTSGGSGGGSVTRGDTFTQSSGGSGGGVTCRASGFYPWNITLSWRQDGVSLSHDTQQWGDVLPDGNGTYQTWVATRISGGSGGGSVTRGDTFTQSSGGSGGGCYMEHSGNHSTHPVPSGK" unit_of_measurement=OD quantitative_readout=5.36
binder="M13 phage pKK136 displaying MICA α3 domain with loop 1 insert 5.1sp and loop 3 insert 3.2sp (designed binder, also called 1-5.1sp/3-3.2sp; not shown: C-terminal portion of M13 gene III protein, fused at codon position 198) TVPPMVNVTSGGSGGGSVTRGDTFTQSSGGSGGGVTCRASGFYPWNITLSWRQDGVSLSHDTQQWGDVLPDGNGTYQTWVATRISGGSGGGSTSRGDHPRTQSGGSGGGCYMEHSGNHSTHPVPSGK" unit_of_measurement=OD quantitative_readout=4.28
binder="M13 phage pKK93 displaying MICA α3 domain with loop 1 insert 3.2 (designed binder, also called 1-3.2; not shown: C-terminal portion of M13 gene III protein, fused at codon position 198) TVPPMVNVTRTSRGDHPRTQVTCRASGFYPWNITLSWRQDGVSLSHDTQQWGDVLPDGNGTYQTWVATRICQGEEQRFTCYMEHSGNHSTHPVPSGK" unit_of_measurement=OD quantitative_readout=0.774
binder="M13 phage pKK103 displaying MICA α3 domain with loop 1 insert 5.3sp (designed binder, also called 1-5.3sp; not shown: C-terminal portion of M13 gene III protein, fused at codon position 198) TVPPMVNVTSGGSGGGSHLARGDDLTYSGGSGGGVTCRASGFYPWNITLSWRQDGVSLSHDTQQWGDVLPDGNGTYQTWVATRICQGEEQRFTCYMEHSGNHSTHPVPSGK" unit_of_measurement=OD quantitative_readout=0.814
